Where these numbers come from: ChEMBL document CHEMBL1201861

- Tested on: IGR-1;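 further: growth inhibition of human IGR-1 cells, read out with a cell viability assay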
- method: cells
- Assay type: functional, cell-based
- conditionSummary: Homo sapiens
- Description: SANGER: Inhibition of human IGR-1 cell growth in a cell viability assay.
compounds and their reported IC50
Please state the figure in µM; there is no need to write the unit.

C/C(=C\c1csc(C)n1)[C@@H]1C[C@@H]2O[C@]2(C)CCC[C@H](C)[C@H](O)[C@@H](C)C(=O)C(C)(C)[C@@H](O)CC(=O)O1 = 0.000863

Continue with the compound presented below.
Value lookup for IC50; key = CCCCCCCCCCCC1=C(O)C(=O)C=C(O)C1=O
5.38

----------
- Test system: HEC-1
- method: cells
- Assay type: functional, cell-based
- conditionSummary: Homo sapiens
- Description: SANGER: Inhibition of human HEC-1 cell growth in a cell viability assay.
endpointLabel: IC50

Value lookup for IC50; key = CO[C@@H]1[C@H](N(C)C(=O)c2ccccc2)C[C@H]2O[C@]1(C)n1c3ccccc3c3c4c(c5c6ccccc6n2c5c31)C(=O)NC4 [MIDOSTAURIN]
> 0.512 µM

Value lookup for IC50; key = O=C(NCCCNc1nc(Nc2cccc(NC(=O)N3CCCC3)c2)ncc1I)c1cccs1 [BX-795]
4.09 µM

Value lookup for IC50; key = CC1(C)CCC(c2ccc(Cl)cc2)=C(CN2CCN(c3ccc(C(=O)NS(=O)(=O)c4ccc(N[C@H](CCN5CCOCC5)CSc5ccccc5)c(S(=O)(=O)C(F)(F)F)c4)cc3)CC2)C1 [NAVITOCLAX]
> 2 µM

Value lookup for IC50; key = CS(=O)(=O)N1CCN(Cc2cc3nc(-c4cccc5[nH]ncc45)nc(N4CCOCC4)c3s2)CC1 [PICTILISIB]
> 4 µM

Value lookup for IC50; key = CC1=C(/C=C/C(C)=C/C=C/C(C)=C/C(=O)O)C(C)(C)CCC1 [TRETINOIN]
> 10 µM

Value lookup for IC50; key = O=S(=O)(O)c1ccc2cc(/N=N/c3cc(S(=O)(=O)O)c4cccnc4c3O)ccc2c1
> 16 µM

Value lookup for IC50; key = Cc1ccc(-n2nc(C(C)(C)C)cc2NC(=O)Nc2ccc(OCCN3CCOCC3)c3ccccc23)cc1 [DORAMAPIMOD]
> 10 µM

----------
- Test system: NCI-H209;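 further: growth inhibition of human NCI-H209 cells, measured by a cell viability assay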
- method: cells
- Format: functional, cell-based, Homo sapiens
- conditionSummary: Homo sapiens, NCI-H209
- Description: SANGER: Inhibition of human NCI-H209 cell growth in a cell viability assay.
molecules and their reported pIC50
Interpret pIC50 as the negative base-10 log of the concentration measured in mol/L.

CC1=C(/C=C/C(C)=C/C=C/C(C)=C/C(=O)O)C(C)(C)CCC1 = 5.60
CC1(C)CCC(c2ccc(Cl)cc2)=C(CN2CCN(c3ccc(C(=O)NS(=O)(=O)c4ccc(N[C@H](CCN5CCOCC5)CSc5ccccc5)c(S(=O)(=O)C(F)(F)F)c4)cc3)CC2)C1 = 7.06

Continue with the molecule presented below.
Value lookup for pIC50; key = C/C(=C\c1csc(C)n1)[C@@H]1C[C@@H]2O[C@]2(C)CCC[C@H](C)[C@H](O)[C@@H](C)C(=O)C(C)(C)[C@@H](O)CC(=O)O1
7.68

----------
- Test system: KU-19-19
- method: cells
- Format: functional, cell-based
- conditionSummary: Homo sapiens
- Description: SANGER: Inhibition of human KU-19-19 cell growth in a cell viability assay.
pIC50: −log10 of the molar value.
compounds and their reported pIC50

COc1ccc(-c2cc3nccn3c(Nc3ncccc3C(N)=O)n2)cc1OC = < 5.10
OC[C@H](Cc1ccccc1)Nc1nc(Oc2ccc3c(c2)CCC3)nc2c1ncn2Cc1ccc(-c2ccccc2)cc1 = < 4.99
CN(NC(=O)CC(=O)NN(C)C(=S)c1ccccc1)C(=S)c1ccccc1 = 8.15

Value lookup for pIC50; key = NC(=O)c1ccc(N(C(N)=O)c2c(F)cccc2F)nc1-c1ccc(F)cc1F
< 5.70

Value lookup for pIC50; key = CC1=C(/C=C/C(C)=C/C=C/C(C)=C/C(=O)O)C(C)(C)CCC1
< 5.00
